# EXPERIMENTAL_SYSTEM: HIV-1 reverse transcriptase (HIV RT) (HIV-1 (HXB2 strain), UniProt P04585;P04585 588-1147;588-1027)
# TEST_DETAILS: competition (DRaCALA); unlabeled PF1 vs 5 nM 32P-PF1; 960 nM RT
# EXPERIMENTAL_CONDITIONS: protein: commercial; copies: 1;1
ATTRIBUTE_MEASURED: IC50 (µM)

In [3]: df
Out[3]:
                                     binder  value_reported
0  AGGAAGGCTTTAGGTCTGAGATCTCGGAAT (structured_DNA) [PF1]               4
